Entry source: paper PMC8317130

# assay-notes: Aqueous solubility
# Assay type: physicochemical
# particulars: PBS buffer, pH 7.4

structure | solubility at 24 h
NS(=O)(=O)c1nnc(NC(=O)CN2CCOCC2)s1 | 39 µg/mL
NS(=O)(=O)c1nnc(NC(=O)CCC2CCCCC2)s1 | 10.4 µg/mL

----------
# assay-notes: In vivo pharmacokinetics, oral gavage
# Parameters: species or system mice
# particulars: male, ICR, mouse, plasma, 10 mg/kg

structure | unit-info | concentration at 1440 min
NS(=O)(=O)c1nnc(NC(=O)CCC2CCCCC2)s1 | ng/mL | 0
